molecular target: UniProtKB P00533; test: Inhibition of recombinant human GST-tagged wild type EGFR ( 668 to 1210 residues) cytoplasmic domain expressed in baculovirus expression system preincubated for 20 mins followed by addition of [33P]-ATP measured after 2 hrs by filter-binding method; details: read-out: IC50
Sequence (P00533 whole entry, the tested form may be a part): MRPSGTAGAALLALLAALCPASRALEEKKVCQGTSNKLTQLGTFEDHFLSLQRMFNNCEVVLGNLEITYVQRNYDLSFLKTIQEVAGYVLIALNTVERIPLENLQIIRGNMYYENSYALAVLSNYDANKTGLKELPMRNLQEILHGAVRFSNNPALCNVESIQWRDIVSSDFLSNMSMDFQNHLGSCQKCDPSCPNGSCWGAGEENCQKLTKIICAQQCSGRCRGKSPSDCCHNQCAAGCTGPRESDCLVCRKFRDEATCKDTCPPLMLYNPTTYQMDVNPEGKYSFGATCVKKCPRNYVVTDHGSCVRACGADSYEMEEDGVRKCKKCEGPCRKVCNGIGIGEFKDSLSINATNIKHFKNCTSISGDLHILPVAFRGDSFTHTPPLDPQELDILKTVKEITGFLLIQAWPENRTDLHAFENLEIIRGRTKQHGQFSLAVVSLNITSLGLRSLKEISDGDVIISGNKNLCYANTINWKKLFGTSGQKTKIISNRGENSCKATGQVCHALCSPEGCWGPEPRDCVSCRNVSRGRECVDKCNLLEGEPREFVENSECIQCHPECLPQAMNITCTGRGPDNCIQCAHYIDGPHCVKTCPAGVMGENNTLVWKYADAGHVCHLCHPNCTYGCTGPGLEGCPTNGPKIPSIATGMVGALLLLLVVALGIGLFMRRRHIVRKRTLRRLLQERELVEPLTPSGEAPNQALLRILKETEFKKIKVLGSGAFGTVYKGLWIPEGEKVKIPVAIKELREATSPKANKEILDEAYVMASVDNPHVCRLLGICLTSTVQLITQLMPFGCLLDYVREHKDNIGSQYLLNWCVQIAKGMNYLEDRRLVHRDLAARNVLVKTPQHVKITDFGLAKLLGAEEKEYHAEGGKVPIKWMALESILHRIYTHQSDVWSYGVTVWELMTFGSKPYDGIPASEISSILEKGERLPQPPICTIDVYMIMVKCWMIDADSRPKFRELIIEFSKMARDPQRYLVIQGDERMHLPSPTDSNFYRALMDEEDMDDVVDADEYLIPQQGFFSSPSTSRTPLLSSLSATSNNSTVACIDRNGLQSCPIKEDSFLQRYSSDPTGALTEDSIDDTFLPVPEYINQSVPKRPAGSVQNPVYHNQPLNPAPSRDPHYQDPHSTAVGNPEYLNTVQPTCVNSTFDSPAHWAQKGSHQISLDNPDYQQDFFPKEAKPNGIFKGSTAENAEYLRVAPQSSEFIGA
Parameter IC50: see the listing below.
Answer in µM, number only, no unit symbol.

These recorded examples may help you get a feel for the data.
[
  {
    "structure_smiles_string": "C=CC(=O)Nc1cccc(-c2c[nH]c3nccc(-c4[nH]c(CCCO)nc4C4CC4)c23)c1",
    "IC50 [µM]": 0.673
  },
  {
    "structure_smiles_string": "C=CC(=O)Nc1cccc(-c2c[nH]c3nccc(-c4[nH]c(CCCO)nc4C(F)(F)F)c23)c1",
    "IC50 [µM]": 0.68
  }
]

Now for the compound whose IC50 we want.
Req: Provide one value: measured IC50 of Oc1ccc(-c2nc(-c3ccnc4[nH]c(-c5ccccc5)cc34)c(-c3ccc(F)cc3)[nH]2)cc1
Resp: 0.0492

---

biological target: UniProt P00533; test: Inhibition of recombinant human GST-tagged wild type EGFR ( 668 to 1210 residues) cytoplasmic domain expressed in baculovirus expression system preincubated for 20 mins followed by addition of [33P]-ATP measured after 2 hrs by filter-binding method; details: read-out: IC50
Documented IC50 across a set of compounds

Below are worked cases with known answers.
[
  {
    "structure_smiles_string": "C=CC(=O)Nc1cccc(-c2c[nH]c3nccc(-c4[nH]c(CCCO)nc4-c4ccc(F)cc4)c23)c1",
    "IC50": "< 0.3 nM"
  },
  {
    "structure_smiles_string": "OCCc1nc(-c2ccc(F)cc2)c(-c2ccnc3[nH]c(-c4ccccc4)cc23)[nH]1",
    "IC50": "< 0.3 nM"
  }
]

Please examine the following record next.
Req: For OCCCCc1nc(-c2ccc(F)cc2)c(-c2ccnc3[nH]c(-c4ccccc4)cc23)[nH]1 , write its IC50.
Resp: < 0.3 nM
